target_desc: human AT1 receptor (Homo sapiens, UniProt P30556)
Construct: expressed in transfected cells; membrane fraction
Sequence (P30556 whole entry): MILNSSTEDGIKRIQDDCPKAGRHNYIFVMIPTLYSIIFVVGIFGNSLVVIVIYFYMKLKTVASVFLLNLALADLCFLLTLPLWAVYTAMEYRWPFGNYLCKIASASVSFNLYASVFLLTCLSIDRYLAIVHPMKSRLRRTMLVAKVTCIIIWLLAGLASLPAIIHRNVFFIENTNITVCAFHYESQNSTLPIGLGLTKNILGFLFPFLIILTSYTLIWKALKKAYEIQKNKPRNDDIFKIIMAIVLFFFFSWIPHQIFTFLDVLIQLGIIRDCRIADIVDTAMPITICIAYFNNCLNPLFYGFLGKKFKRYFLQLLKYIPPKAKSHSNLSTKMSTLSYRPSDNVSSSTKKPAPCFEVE
protocol: AT1 receptor antagonistic activity: [125I]-angiotensin II binding assay on human AT1 receptor-expressing CHO-K1 cellular membrane fraction
cond: 22.5 pM [125I]-angiotensin II, 1 hr room temperature
# if measured IC50 < 2 nM: fulfilled  # else: not fulfilled

>  <molecule>
CCCCc1c(Cc2ccc(-c3ccccc3-c3nnn[nH]3)cc2F)c(=O)n([C@H]2CC[C@H](OCC(C)(C)O)CC2)c2ncnn12

>  <target_desc>
human AT1 receptor (Homo sapiens, UniProt P30556)

>  <cat>
fulfilled

$$$$

Record CCCc1c(Cc2ccc(-c3ccccc3-c3noc(=O)[nH]3)cc2)c(=O)n([C@H]2CC[C@@H](Oc3ccc(OC)cc3)CC2)c2ncnn12 : is its IC50 strictly below 2 nM?
not fulfilled

Record CCCc1c(Cc2ccc(-c3ccccc3-c3noc(=O)[nH]3)cc2)c(=O)n([C@H]2CC[C@@](C)(O)CC2)c2ncnn12 : is its IC50 strictly below 2 nM?
not fulfilled

Record CCCc1c(Cc2ccc(-c3ccccc3-c3noc(=O)[nH]3)cc2)c(=O)n(CCC)c2ncnn12 : is its IC50 strictly below 2 nM?
not fulfilled

Record CCCc1c(Cc2ccc(-c3ccccc3-c3noc(=O)[nH]3)cc2)c(=O)n([C@H]2CC[C@H](OC(C)C(C)(C)O)CC2)c2ncnn12 (stereo partly drawn) [Example 300] : is its IC50 strictly below 2 nM?
fulfilled

Record CCCc1c(Cc2ccc(-c3ccccc3-c3noc(=O)[nH]3)cc2)c(=O)n(CC(C)(C)C)c2ncnn12 : is its IC50 strictly below 2 nM?
not fulfilled

Where do the numbers come from? From patent US8283353B2.
